# test-protocol: in vivo
# assay-conditions: female, C57BL/6, mouse, brain/plasma, 2 mg/kg
# Description: Unbound brain-to-plasma concentration ratio in female C57BL/6 mouse at 2 mg/kg administered daily for 7 days and measured 8 hrs post last dose
readout: Kp uu at 176 h

[Q] Form field: reported Kp uu at 176 h of CCN1C(=O)N(c2ccc(C3CC3)cc2)C(=O)C12CCN(CC1CCOCC1)CC2
[A] 0.6

---

# test-protocol: Kinetic solubility of compound in PBS at pH 7.4
readout: solubility kinetic (µM)
Reply with just the number (in µM).

| smiles-string | solubility kinetic (µM) |
| --- | --- |
| CCN1C(=O)N(c2ccc(C3CC3)cc2)C(=O)C12CCN(CC1CCOCC1)CC2 | 64 |

We next turn to a different molecule, shown below.
[Q] I'd like to know its solubility kinetic. The molecule in question is CCN1C(=O)N([C@H]2CC[C@H](C(F)(F)F)CC2)C(=O)C12CCN(CC1CCOCC1)CC2
[A] 29

---

# test-protocol: Dissociation constant, pKa of compound
# pKa annotations
Reply briefly: the number, and no unit.

Illustrative cases are given below, each with its answer.
| compound | pKa |
| --- | --- |
| CCN1C(=O)N(c2ccc(C(F)(F)F)cc2)C(=O)C12CCN(CC1CCOCC1)CC2 | 7.9 |
| CCN1C(=O)N(c2ccc(C(F)(F)F)cc2)C(=O)C12CCN(C1CCOCC1)CC2 | 8.2 |
| CCN1C(=O)N(c2ccc(C(F)(F)F)cc2)C(=O)C12CCN(CC1CCS(=O)(=O)CC1)CC2 | 8.1 |
| CCN1C(=O)N(c2ccc(C(F)(F)F)cc2)C(=O)C12CCN(CC1(F)CCOCC1)CC2 | 5.7 |
| CCN1C(=O)N(c2ccc(C(F)(F)F)cc2)C(=O)C12CCN(C1CCCOCC1)CC2 (stereo unspecified) | 8.1 |

[Q] Report pKa for CCN1C(=O)N(c2ccc(C(F)(F)F)cc2)C(=O)C12CCN(C(C)C1CCOCC1)CC2 (stereo unspecified) please.
[A] 8.2

---

# experimental-target: Voltage-gated inwardly rectifying potassium channel KCNH2 (Homo sapiens, UniProt Q12809)
# Sequence (Q12809 whole entry): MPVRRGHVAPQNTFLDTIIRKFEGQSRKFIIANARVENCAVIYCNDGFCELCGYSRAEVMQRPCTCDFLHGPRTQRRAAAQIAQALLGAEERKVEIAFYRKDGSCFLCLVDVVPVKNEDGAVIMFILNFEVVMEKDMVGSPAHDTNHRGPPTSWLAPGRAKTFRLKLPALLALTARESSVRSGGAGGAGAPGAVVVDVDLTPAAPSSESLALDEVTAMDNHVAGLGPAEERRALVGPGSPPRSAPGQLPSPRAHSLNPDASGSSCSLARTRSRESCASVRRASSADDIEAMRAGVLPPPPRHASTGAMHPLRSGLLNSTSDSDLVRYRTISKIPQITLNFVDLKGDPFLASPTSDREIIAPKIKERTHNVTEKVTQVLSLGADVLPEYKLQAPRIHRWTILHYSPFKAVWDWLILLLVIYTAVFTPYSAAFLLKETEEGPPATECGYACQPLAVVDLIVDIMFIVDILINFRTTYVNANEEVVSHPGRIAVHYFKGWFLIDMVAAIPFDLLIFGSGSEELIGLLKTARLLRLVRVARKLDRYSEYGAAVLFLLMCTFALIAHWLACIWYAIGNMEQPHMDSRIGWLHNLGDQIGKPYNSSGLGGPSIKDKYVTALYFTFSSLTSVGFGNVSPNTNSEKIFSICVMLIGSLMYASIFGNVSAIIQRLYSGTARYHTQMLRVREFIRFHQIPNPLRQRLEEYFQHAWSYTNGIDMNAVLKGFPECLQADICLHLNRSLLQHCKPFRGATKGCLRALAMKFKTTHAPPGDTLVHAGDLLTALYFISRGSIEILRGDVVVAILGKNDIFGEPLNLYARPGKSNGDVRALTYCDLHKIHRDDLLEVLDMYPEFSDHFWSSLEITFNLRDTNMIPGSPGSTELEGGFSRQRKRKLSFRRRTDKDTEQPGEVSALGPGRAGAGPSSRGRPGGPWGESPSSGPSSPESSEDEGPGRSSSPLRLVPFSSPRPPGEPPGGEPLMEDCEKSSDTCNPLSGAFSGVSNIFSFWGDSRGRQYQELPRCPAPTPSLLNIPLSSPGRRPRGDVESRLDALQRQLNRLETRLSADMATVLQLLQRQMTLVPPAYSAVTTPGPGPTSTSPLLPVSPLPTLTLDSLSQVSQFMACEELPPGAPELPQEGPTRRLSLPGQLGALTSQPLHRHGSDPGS
# test-protocol: Inhibition of human ERG expressed in CHO cells by whole cell patch clamp recording
pIC50: −log10 of the molar value.
Lab note: compare pIC50 against 5. Equal or greater, write YES. Smaller, write NO.

Reference set (4 entries):
| compound | assigned-class |
| --- | --- |
| CCN1C(=O)N(c2ccc(C(F)(F)F)cc2)C(=O)C12CCN(CC1(F)CCOCC1)CC2 | NO |
| CCN1C(=O)N(c2ccc(C(F)(F)F)cc2)C(=O)C12CCN(C(C)C1CCOCC1)CC2 (stereo not drawn) | YES |
| CCN1C(=O)N(c2ccc(C(F)(F)F)cc2)C(=O)C12CCN(C1CCOCC1)CC2 | YES |
| CCN1C(=O)N(c2ccc(C(F)(F)F)cc2)C(=O)C12CCN(CC1CCS(=O)(=O)CC1)CC2 | NO |

[Q] Kindly determine if pIC50 recorded for CCN1C(=O)N(c2ccc(C(F)(F)F)cc2)C(=O)C12CCN(CC1CCOCC1)CC2 is above or exactly 5.
[A] YES

[Q] Given CCN1C(=O)N(c2ccc(C(F)(F)F)cc2)C(=O)C12CCN(C1CCCOCC1)CC2 (stereo not drawn) , state whether its pIC50 is at least 5.
[A] YES

Source listed as ChEMBL document CHEMBL5518221.
